Tested on: MDA-MB-231
Experiment: NCI tumour cell line growth inhibition, 48 h
Activity calls are given as the source filed them. Rule as the data show it: active = GI50 up to about 1.1 µM and inactive = higher.
Lab note: assign the record to one of active, inactive

Worked set:
{"columns": ["smiles.string", "class"],
 "data": [
  ["CN1CCN(CC(=O)Nc2cccc3ccccc23)CC1", "inactive"],
  ["C[n+]1c(-c2ccccc2)cc2/c(=C\\c3ccccc3)c3ccccc3n21", "active"]
]}

Problem: Identify the outcome logged in this assay for the compound shown: O=C(C(=O)n1ccc2ccccc21)c1c[nH]c2ccccc12
Result: inactive

====

Test system: U-251
Test: NCI tumour cell line growth inhibition, 48 h
Activity calls are given as the source filed them. Rule as the data show it: active = GI50 up to about 1.1 µM and inactive = higher.
property: GI50

{"columns": ["compound", "GI50"],
 "data": [
  ["CC(C)(C)c1ccnc(/N=C2\\N/C(=N\\c3cc(C(C)(C)C)ccn3)c3ccccc32)c1", "26.1 µM (inactive)"],
  ["NC(=O)CCCC(NCc1c2ccccc2nc2ccccc12)C(=O)O (centres undefined)", "> 100 µM (inactive)"],
  ["C(/C=N/c1ccccc1)=C(/Nc1ccccc1)c1ccc2ccccc2c1", "2.65 µM (inactive)"],
  ["Cc1ccc(S(=O)(=O)N/N=C2\\C(=O)C3CC2C(Cl)C3Cl)cc1 (centres undefined)", "> 100 µM (inactive)"],
  ["[C-]#[N+][C@@H]1C2[C@H](CC[C@@]1(C)O)C(=C)CC[C@@H]2[C@@]1(C)CC[C@H](Cl)C(C)(C)O1 (some centres undefined)", "8.87 µM (inactive)"]
]}

Problem: Kindly state the measured GI50 obtained for CCCCCC(O)C1C(=O)OC(C)C(O)/C=C/C=C/C=C/C=C\C=C(\C)C(O)CC(O)CC(O)CC(O)CC(O)CC(O)CC1O (centres undefined) with U-251.
Result: > 50 µM (inactive)

Problem: Record: CCCCCOC(=O)c1cc2cc(CCl)ccc2oc1=O
Result: 16.8 µM (inactive)

Problem: Record: CC(=O)O[C@H]1CC[C@@]2(C)C(=CC[C@H]3C4=CC=C(C(C)=O)[C@@]4(C)CCC32)C1 (some centres undefined)
Result: 35.7 µM (inactive)

Problem: Record: Nc1cc(S(=O)(=O)O)cc2ccc(S(=O)(=O)O)cc12
Result: > 100 µM (inactive)
